Values from ChEMBL document CHEMBL4483862

# Test system: Plasmodium berghei
# test.description: Luciferase/luciferin-expressing antifolate-resistant parasites were used to infect a culture of HepG2 cells that were pre-incubated with compounds. Infected hepatocytes emit light due to the luciferase reaction. Assay results are presented as the percent inhibition of light emission compared to control. […]
# Assay type: functional
# measurement.conditions: sporozoite, HEPG2TOX_HILL_SLOPE 9.79, HEPG2TOX_R_SQUARED 0.928, PBLUC_HILL_SLOPE 1.7, PBLUC_R_SQUARED 0.764, read-out: LUCIFERASE INFECTION ASSAY - IC50
metric.name: pIC50
The quantity pIC50 is defined as the negative base-10 logarithm of the molar concentration.

Problem: Could you tell me which pIC50 is on file for N#Cc1ccc(C#CCOC(=O)c2ccc(Cl)cc2)cc1 ?
Result: 5.45

----------
pIC50 listing for selected molecules.
# System: Plasmodium berghei
# test.description: Luciferase/luciferin-expressing antifolate-resistant parasites were used to infect a culture of HepG2 cells that were pre-incubated with compounds. Infected hepatocytes emit light due to the luciferase reaction. Assay results are presented as the percent inhibition of light emission compared to control. […]
# Format: functional
# measurement.conditions: sporozoite, read-out: LUCIFERASE INFECTION ASSAY - IC50
pIC50: −log10 of the molar value.

{"molecule": "CC(Oc1ccc(Cl)cc1Cl)C(=N)NO (configuration not stated)", "metric.name": "pIC50", "value.observed": "< 4.88"}
{"molecule": "Cc1ccc2c(Cl)c(C(=O)Nc3nonc3-c3ccccc3)sc2c1", "metric.name": "pIC50", "value.observed": 5.13}
{"molecule": "CCN(CC)CCn1c(NC(=O)c2cc3c(C)nn(-c4ccc(Cl)cc4)c3s2)nc2ccccc21", "metric.name": "pIC50", "value.observed": "< 5.00"}
{"molecule": "N#C/C(=N\\Nc1ccc(F)cc1)C(=O)c1ccc(Cl)cc1", "metric.name": "pIC50", "value.observed": 5.02}
{"molecule": "N#Cc1ccc(Cl)cc1/N=C/C(Br)=C/c1ccccc1", "metric.name": "pIC50", "value.observed": "< 5.00"}
{"molecule": "CCc1ccccc1-n1c(SCCn2c(=O)oc3ccccc32)nc2ccccc2c1=O", "metric.name": "pIC50", "value.observed": "< 5.00"}

Problem: Could you tell me which pIC50 is on file for CNC(=O)NC(=O)CNc1ccc(C(F)(F)F)cc1 ?
Result: < 5.00

Problem: Could you tell me which pIC50 is on file for O=C(Nc1nc(=O)n(C(=O)c2cccs2)s1)c1ccccc1 ?
Result: < 5.00

Problem: Could you tell me which pIC50 is on file for CCN(CC)c1ccc2cc(/C=N/NC(=O)C34CC5CC(CC(C5)C3)C4)c(=O)oc2c1 ?
Result: < 5.00

Problem: Could you tell me which pIC50 is on file for CC(C)c1ccccc1NC(=O)COC(=O)C(C)(C)Oc1ccc(Cl)cc1 ?
Result: < 5.00

Problem: Could you tell me which pIC50 is on file for NC(=O)C1CCN(C(=O)CCn2c(=O)oc3ccccc32)CC1 ?
Result: < 5.00

----------
# System: Plasmodium berghei
# test.description: Luciferase/luciferin-expressing antifolate-resistant parasites were used to infect a culture of HepG2 cells that were pre-incubated with compounds. Infected hepatocytes emit light due to the luciferase reaction. Assay results are presented as the percent inhibition of light emission compared to control. […]
# Type: functional
# measurement.conditions: sporozoite, HEPG2TOX_HILL_SLOPE 8.29, HEPG2TOX_R_SQUARED 0.38, read-out: LUCIFERASE INFECTION ASSAY - IC50
metric.name: IC50

Problem: Reported IC50 for Plasmodium berghei, given CC(OC(=O)c1c(NC(=O)C2CCCCC2)sc2c1CCC2)C(=O)Nc1[nH]cnc2ncnc1-2 (stereo unspecified) ?
Result: > 10 µM
